Molecular target: T1, Cynomolgus CD3εδ Fc heterodimer (Cy CD3ε Fc / CD3δ Fc-HIS) (cynomolgus, UniProt Q95LI8 22-100)
T1 chain 1: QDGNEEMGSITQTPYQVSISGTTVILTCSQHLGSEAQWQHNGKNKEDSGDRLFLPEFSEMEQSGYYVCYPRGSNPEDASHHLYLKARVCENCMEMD
T1 chain 2: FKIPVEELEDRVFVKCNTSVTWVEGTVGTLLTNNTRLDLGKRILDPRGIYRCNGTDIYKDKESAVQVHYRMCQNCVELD
Test: BLI (Octet), IgG on AHC sensor, pH 6.0
MEASUREMENT_TYPE: koff (s⁻¹)
Give your result in s⁻¹ as a bare value.

{"BINDER": "SAD10319_P01_A02 (ADI-57301) (antibody, V domains shown, IgG; also called Ab236) VH: QVQLVQSGAEVKKPGASVKVSCKASGYTFTEYEMHWVRQAPGQRLEWMGWINPLTGNTKYSQKFQGRVTITRDTSASTAYMELSSLRSEDTAVYYCARDHYGHYFYDVWGQGTLVTVSS VL: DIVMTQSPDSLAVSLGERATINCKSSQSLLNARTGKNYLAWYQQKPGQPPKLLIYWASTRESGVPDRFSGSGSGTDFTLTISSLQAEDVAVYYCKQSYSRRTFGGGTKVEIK", "MEASUREMENT_TYPE": "koff", "DISPLAY_UNIT": "s⁻¹", "REPORTED": 0.0165}

Attention now turns to another entry.
Using the record for SAD10320_P02_H04 (ADI-57362) (antibody, V domains shown, IgG; also called Ab73) VH: QVQLVQSGAEVKKPGASVKVSCKASGFNIKDYYMHWVRQAPGQRLDWMGWIDLENANTIYDAKFQGRVTITRDTSASTAYMELSSLRSEDTAVYYCARDAYGHLFYDVWGQGTLVTVSS VL: DIVMTQSPDSLAVSLGERATINCKSSQSLLNARTGKNYLAWYQQKPGQPPKLLIYWASTRESGVPDRFSGSGSGTDFTLTISSLQAEDVAVYYCKQSHMRRTFGGGTKVEIK , report its koff.
0.0278

Origin of the recorded values: patent US20220380463A1
